Biological target: HCV NS3/4A protease complex, BMS strain (genotype 1a) (UniProt P27958, C1454S/C1711G, species not given/STRAIN_BMS)
Construct: b1001: DNA encoding the recombinant HCV NS3/4A protease complex (amino acids 1027 to 1711) ... a three-lysine solubilizing tail was added at the 3′-end of the NS4A coding region; fused on or other part: Three-lysine solubilising tail at the C-terminus of NS4A; A His tag is implied by the pET21b vector and Ni-NTA purification
Experiment: Recombinant HCV NS3/4A protease complex FRET peptide assay, BMS strain
Type: biochemical
Settings: NS3/4A BMS strain; activity range symbols
Recorded IC50 by entry

{"columns": ["COMPOUND", "IC50"],
 "data": [
  ["CCC1(S(=O)(=O)NC(=O)C23CC2C=CCCCSCC(NC(=O)NC2CCCC2)C(=O)N2CC(Oc4nccc5cc(OC)ccc45)CC2C(=O)N3)CC1 (centres unmarked)", "< 50 nM"]
]}

Task item: Please give the documented IC50 of COc1ccc2c(OC3CC4C(=O)NC5(C(=O)NS(=O)(=O)C6(C)CC6)CC5C=CCCCOC(C)C(NC(=O)OC(C)(C)C)C(=O)N4C3)nccc2c1 (centres unmarked)
Reply: < 50 nM

Task item: Please give the documented IC50 of CC(C)(C)OC(=O)N[C@H]1CCCCC/C=C\[C@@H]2C[C@@]2(C(=O)NS(C)(=O)=O)NC(=O)[C@@H]2C[C@@H](Oc3nccc4ccccc34)CN2C1=O
Reply: < 50 nM

Task item: Please give the documented IC50 of CC(C)(C)COC(=O)N[C@H]1CCCCC/C=C\[C@@H]2C[C@@]2(C(=O)NS(=O)(=O)C2CC2)NC(=O)[C@@H]2C[C@@H](Oc3nccc4ccccc34)CN2C1=O
Reply: < 50 nM

Task item: Please give the documented IC50 of COc1ccc2c(OC3CC4C(=O)NC5(C(=O)NS(=O)(=O)C6CC6)CC5C=CCCCOCC(NC(=O)OCC(C)(C)C)C(=O)N4C3)nc(-c3ccccc3)cc2c1 (centres unmarked)
Reply: < 50 nM

* * *

Target: HCV NS3/4A protease complex, BMS strain (genotype 1a) (UniProt P27958, C1454S/C1711G, species not given/STRAIN_BMS)
Construct: b1001: DNA encoding the recombinant HCV NS3/4A protease complex (amino acids 1027 to 1711) ... a three-lysine solubilizing tail was added at the 3′-end of the NS4A coding region; fused on or other part: Three-lysine solubilising tail at the C-terminus of NS4A; A His tag is implied by the pET21b vector and Ni-NTA purification
Assay: Recombinant HCV NS3/4A protease complex FRET peptide assay, BMS strain
Assay type: biochemical
Conditions: NS3/4A BMS strain; activity range symbols
Text: Recombinant HCV NS3/4A Protease Complex FRET Peptide Assay The purpose of this in vitro assay was to measure the inhibition of HCV NS3 protease complexes, derived from the BMS strain, H77C strain or J416S strain, as described below, by compounds of the present invention. This assay provides an indication of how effective compounds of the present invention would be in inhibiting HCV proteolytic activity. Serum from an HCV-infected patient was obtained from Dr. T. Wright, San Francisco Hospital. […]
Recorded IC50 by entry

Past entries and their recorded results:
{"columns": ["MOLECULE", "TEST_VALUE"],
 "data": [
  ["CC(C)S(=O)(=O)NC(=O)[C@@]12C[C@H]1/C=C\\CCCCC[C@H](NC(=O)OC(C)(C)C)C(=O)N1C[C@H](Oc3nccc4ccccc34)C[C@H]1C(=O)N2", "< 50 nM"],
  ["COc1cccc2c(OC3CC4C(=O)NC5(C(=O)NS(=O)(=O)C6CC6)CC5C=CCCCCCC(NC(=O)OC(C)(C)C)C(=O)N4C3)nccc12 (centres unmarked)", "< 50 nM"],
  ["CC(C)(C)OC(=O)N[C@H]1CCCCC/C=C\\[C@@H]2C[C@@]2(C(=O)NS(=O)(=O)C2CC2)NC(=O)[C@@H]2C[C@@H](Oc3nccc4ccccc34)CN2C1=O", "< 50 nM"],
  ["COc1ccc2c(OC3CC4C(=O)NC5(C(=O)NS(=O)(=O)C6CC6)CC5C=CCOCCCC(NC(=O)Nc5ccc(C#N)cc5)C(=O)N4C3)nc(-c3ccccc3)cc2c1 (centres unmarked)", "< 50 nM"]
]}

Moving on to the next molecule.
Task item: Please give the documented IC50 of CC(C)(C)OC(=O)N[C@H]1CCCCCCC[C@@H]2C[C@@]2(C(=O)NS(=O)(=O)C2CC2)NC(=O)[C@@H]2C[C@@H](Oc3nccc4ccccc34)CN2C1=O
Reply: < 50 nM

* * *

System: HCV replicon
Assay: Two-drug combination studies in HCV replicon system, combination index (Chou)
Type: cell-based
Details: monotherapy, Table 9 (combinations with an NS5A inhibitor); NS3 protease inhibitor = compound 28; read-out: NS3 protease inhibitor EC50
MEASUREMENT_KIND: pEC50
Hey, just a heads up that pEC50 is the negative log base 10 of the concentration in molar.

Task item: Please give the documented pEC50 of COc1ccc2c(OC3CC4C(=O)NC5(C(=O)NS(=O)(=O)C6CC6)CC5C=CCOCCCC(NC(=O)OC(C)(C)C)C(=O)N4C3)nccc2c1 (stereo not shown)
Reply: 7.96

* * *

Target: human neutrophil elastase (HNE) (Homo sapiens, UniProt P08246)
Sequence (P08246 30-267): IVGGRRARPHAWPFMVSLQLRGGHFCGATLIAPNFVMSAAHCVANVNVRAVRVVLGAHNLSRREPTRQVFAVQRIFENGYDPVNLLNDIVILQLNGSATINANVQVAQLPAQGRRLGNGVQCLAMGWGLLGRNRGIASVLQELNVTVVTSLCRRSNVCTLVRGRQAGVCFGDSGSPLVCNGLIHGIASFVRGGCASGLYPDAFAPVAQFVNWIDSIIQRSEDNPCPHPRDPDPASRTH
Test: Specificity assay, human neutrophil elastase
Conditions: read-out: HNE activity in the specificity assays (IC50)
Procedure: […] Each assay included a 2 hr enzyme-inhibitor pre-incubation at room temperature followed by addition of substrate and hydrolysis to ˜30% conversion as measured on a Spectramax Pro microplate reader. […] The percentage of inhibition was calculated using the formula: [1−((UVinh−UVblank)/(UVctl−UVblank))]×100 […]
MEASUREMENT_KIND: IC50

Task item: Please give the documented IC50 of CC(C)(C)OC(=O)N[C@H]1CCCCC/C=C\[C@@H]2C[C@@]2(C(=O)NS(C)(=O)=O)NC(=O)[C@@H]2C[C@@H](Oc3nccc4ccccc34)CN2C1=O
Reply: > 100 µM

* * *

Target: HCV NS3/4A protease complex, BMS strain (genotype 1a) (UniProt P27958, C1454S/C1711G, species not given/STRAIN_BMS)
Construct: b1001: DNA encoding the recombinant HCV NS3/4A protease complex (amino acids 1027 to 1711) ... a three-lysine solubilizing tail was added at the 3′-end of the NS4A coding region; fused on or other part: Three-lysine solubilising tail at the C-terminus of NS4A; A His tag is implied by the pET21b vector and Ni-NTA purification
Assay: Recombinant HCV NS3/4A protease complex FRET peptide assay, BMS strain
Assay type: biochemical
Settings: NS3/4A BMS strain; activity range symbols
MEASUREMENT_KIND: IC50

{"columns": ["MOLECULE", "MEASUREMENT_KIND", "TEST_VALUE"],
 "data": [
  ["COc1ccc2c(OC3CC4C(=O)NC5(C(=O)NS(=O)(=O)C6CC6)CC5C=CCOCCCC(NC(=O)N5CCCC5)C(=O)N4C3)nc(-c3ccccc3)cc2c1 (stereo not drawn)", "IC50", "< 50 nM"],
  ["COc1ccc2c(OC3CC4C(=O)NC5(C(=O)NS(=O)(=O)C6CC6)CC5C=CCCCOCC(NC(=O)OC(C)C)C(=O)N4C3)nc(-c3ccc(N(C)C)cc3)cc2c1 (stereo not drawn)", "IC50", "< 50 nM"]
]}

Task item: Please give the documented IC50 of COc1ccc2c(OC3CC4C(=O)NC5(C(=O)NS(=O)(=O)C6(C)CC6)CC5C=CCOCCCC(NC(=O)NC5CCCC5)C(=O)N4C3)nccc2c1 (stereo not drawn)
Reply: < 50 nM

* * *

Tested on: HCV replicon (HCV 1b-377-neo replicon cells, Huh7)
Test: HCV replicon cell-based FRET assay
Details: Hepatitis C virus, Huh-7
MEASUREMENT_KIND: EC50

Task item: Please give the documented EC50 of COc1ccc2c(OC3CC4C(=O)NC5(C(=O)NS(=O)(=O)C6(C)CC6)CC5C=CCOCCCC(NC(=O)OC(C)C)C(=O)N4C3)nccc2c1 (stereo not shown)
Reply: < 50 nM

Task item: Please give the documented EC50 of COc1ccc2c(OC3CC4C(=O)NC5(C(=O)NS(=O)(=O)C6CC6)CC5C=CCCCOCC(NC(=O)OC5CCCC5)C(=O)N4C3)nc(-c3ccc(N(C)C)cc3)cc2c1 (stereo not shown)
Reply: < 50 nM

Task item: Please give the documented EC50 of COc1ccc2c(OC3CC4C(=O)NC5(C(=O)NS(=O)(=O)C6CC6)CC5C=CCCCOCC(NC(=O)NC(C)(C)C)C(=O)N4C3)nc(-c3ccccc3)cc2c1 (stereo not shown)
Reply: < 50 nM

Task item: Please give the documented EC50 of CC(C)(C)OC(=O)N[C@H]1CNCCC/C=C\[C@@H]2C[C@@]2(C(=O)NS(=O)(=O)C2CC2)NC(=O)[C@@H]2C[C@@H](Oc3nccc4ccccc34)CN2C1=O
Reply: 50 to 500 nM

Task item: Please give the documented EC50 of COc1ccc2c(OC3CC4C(=O)NC5(C(=O)NS(=O)(=O)C6CC6)CC5C=CCOCCCC(NC(=O)N5CCNC5=O)C(=O)N4C3)nc(-c3ccccc3)cc2c1 (stereo not shown)
Reply: 500 to 5000 nM

Task item: Please give the documented EC50 of COc1ccc2c(OC3CC4C(=O)NC5(C(=O)NS(=O)(=O)C6CC6)CC5C=CCCCOC(C)C(NC(=O)OC(C)C)C(=O)N4C3)nccc2c1 (stereo not shown)
Reply: 50 to 500 nM

Task item: Please give the documented EC50 of COc1ccc2c(OC3CC4C(=O)NC5(C(=O)NS(=O)(=O)C6CC6)CC5C=CCOCCCC(NC(=O)OC(C)(C)C(F)(F)F)C(=O)N4C3)nccc2c1 (stereo not shown)
Reply: < 50 nM

Task item: Please give the documented EC50 of COc1ccc2c(OC3CC4C(=O)NC5(C(=O)NS(=O)(=O)C6(C)CC6)CC5C=CCCCS(=O)(=O)CC(NC(=O)OC(C)(C)C)C(=O)N4C3)nccc2c1 (stereo not shown)
Reply: 500 to 5000 nM

Task item: Please give the documented EC50 of COc1ccc2c(O[C@@H]3C[C@H]4C(=O)N[C@]5(C(=O)NS(=O)(=O)C6CC6)C[C@H]5/C=C\CCCSC(C)(C)[C@H](NC(=O)OC(C)(C)C)C(=O)N4C3)nccc2c1
Reply: 50 to 500 nM

Task item: Please give the documented EC50 of CCCC1(S(=O)(=O)NC(=O)[C@@]23C[C@H]2CCCCCCC[C@H](NC(=O)OC(C)(C)C)C(=O)N2C[C@H](Oc4nccc5ccccc45)C[C@H]2C(=O)N3)CC1
Reply: < 50 nM

Task item: Please give the documented EC50 of COc1ccc2c(OC3CC4C(=O)NC5(C(=O)NS(=O)(=O)C6CC6)CC5C=CCCCOCC(NC(=O)NC(C)(C)C)C(=O)N4C3)nccc2c1 (stereo not shown)
Reply: < 50 nM

Task item: Please give the documented EC50 of CC1(COC(=O)NC2CCCCCC=CC3CC3(C(=O)NS(=O)(=O)C3CC3)NC(=O)C3CC(Oc4nccc5ccccc45)CN3C2=O)CC1 (stereo not shown)
Reply: < 50 nM

Task item: Please give the documented EC50 of CCC1(S(=O)(=O)NC(=O)C23CC2C=CCCCSCC(NC(=O)OC(C)(C)C)C(=O)N2CC(Oc4nccc5cc(OC)ccc45)CC2C(=O)N3)CC1 (stereo not shown)
Reply: < 50 nM

Values from patent US7173004B2
